Biological target: Phosphatidylinositol 4,5-bisphosphate 3-kinase catalytic subunit delta isoform (Homo sapiens, UniProt O00329)
Assay: Inhibition of PI3Kdelta (unknown origin) using L-alpha-phosphatidylinositol as substrate incubated for 60 mins in presence of ATP by Kinase Glo luminescence assay
METRIC NAME: pIC50
Kindly note that pIC50 refers to -log10 of the concentration in mol/L and answer with the value alone.

Look up pIC50 for this compound: Cc1nc2cnc3ccc(-c4cnc5[nH]ccc5c4)cc3c2n1-c1ccc(C(C)(C)C#N)nc1
8.15

====

Test: AUC (0 to infinity) in Sprague-Dawley rat at 1 mg/kg, iv measured for 24 hrs by LC-MS/MS analysis
Type: ADME, organism-based
Parameters: time 24 hrs, dose 1 mg/kg, route iv
Conditions: in vivo
METRIC NAME: AUC

Need AUC, item Cc1nc2cnc3ccc(-c4cnc5[nH]ccc5c4)cc3c2n1-c1ccc(C(C)(C)C#N)nc1
992 ng·h/mL

====

Target: Phosphatidylinositol 4,5-bisphosphate 3-kinase catalytic subunit delta isoform (Homo sapiens, UniProt O00329)
Sequence (O00329 whole entry): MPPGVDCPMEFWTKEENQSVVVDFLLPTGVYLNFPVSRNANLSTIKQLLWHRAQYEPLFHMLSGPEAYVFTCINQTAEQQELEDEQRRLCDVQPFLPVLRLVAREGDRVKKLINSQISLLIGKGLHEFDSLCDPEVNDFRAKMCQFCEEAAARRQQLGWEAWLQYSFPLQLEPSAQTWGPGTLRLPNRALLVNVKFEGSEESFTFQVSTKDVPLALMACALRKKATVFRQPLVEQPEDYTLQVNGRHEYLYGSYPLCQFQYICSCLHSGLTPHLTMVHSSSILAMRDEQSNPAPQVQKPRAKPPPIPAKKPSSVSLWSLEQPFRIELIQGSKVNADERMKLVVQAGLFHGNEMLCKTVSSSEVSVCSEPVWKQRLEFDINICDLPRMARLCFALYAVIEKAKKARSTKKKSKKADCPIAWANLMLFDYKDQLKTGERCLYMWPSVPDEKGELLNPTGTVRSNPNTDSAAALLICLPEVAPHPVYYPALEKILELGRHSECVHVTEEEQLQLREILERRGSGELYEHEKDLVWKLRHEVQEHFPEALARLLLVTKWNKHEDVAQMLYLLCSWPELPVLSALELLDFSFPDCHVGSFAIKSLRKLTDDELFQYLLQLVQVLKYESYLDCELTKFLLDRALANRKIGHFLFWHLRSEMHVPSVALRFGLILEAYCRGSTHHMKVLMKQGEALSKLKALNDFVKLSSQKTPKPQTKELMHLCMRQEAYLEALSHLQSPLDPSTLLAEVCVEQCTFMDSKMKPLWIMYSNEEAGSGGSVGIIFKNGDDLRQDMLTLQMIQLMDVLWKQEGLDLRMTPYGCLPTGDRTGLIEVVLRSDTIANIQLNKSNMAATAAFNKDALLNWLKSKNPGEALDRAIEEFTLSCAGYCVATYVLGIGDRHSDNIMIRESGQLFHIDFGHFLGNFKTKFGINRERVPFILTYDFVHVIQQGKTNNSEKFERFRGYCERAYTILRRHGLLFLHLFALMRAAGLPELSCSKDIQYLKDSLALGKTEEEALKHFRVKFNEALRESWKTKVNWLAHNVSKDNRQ
Experiment: Inhibition of PI3Kdelta (unknown origin) using PIP2 as substrate incubated for 2 hrs in presence of ATP by Kinase Glo luminescence assay
METRIC NAME: pIC50
pIC50 is defined as minus the log10 of a concentration measured in mol/L.

Below, 3 compounds whose answers are already recorded.
- COMPOUND: "Cc1nc2cnc3ccc(-c4cnc5[nH]ccc5c4)cc3c2n1CC1CCOCC1"
  pIC50: 6.66
- COMPOUND: "Cc1ccc(-c2ccc3ncc4nc(C)n(-c5ccc(F)cc5)c4c3c2)cc1"
  pIC50: 6.24
- COMPOUND: "Cc1nc2cnc3ccc(-c4cnc5[nH]ccc5c4)cc3c2n1-c1ccc(N2CCOCC2)cc1"
  pIC50: 6.81

Which pIC50 is listed for Cc1nc2cnc3ccc(-c4ccc5ccccc5c4)cc3c2n1-c1ccc(F)cc1 ?
6.70

I am curious: what pIC50 value has been reported for Cc1nc2cnc3ccc(-c4cnc5[nH]ccc5c4)cc3c2n1Cc1ccccc1 ?
6.98

GET /values?readout=pIC50&item= Cc1nc2cnc3ccc(-c4cnc5[nH]ccc5c4)cc3c2n1[C@@H](C)c1ccccc1
6.98

Value lookup for pIC50; key = Cc1nc2cnc3ccc(-c4cnc5[nH]ccc5c4)cc3c2n1-c1ccc(C(C)(C)C#N)nc1
8.34

Which pIC50 is reported for this compound? Cc1nc2cnc3ccc(-c4ccc(O)cc4)cc3c2n1-c1ccc(F)cc1
6.88

Find the recorded pIC50 belonging to COc1ccc(-n2c(C)nc3cnc4ccc(-c5cnc6[nH]ccc6c5)cc4c32)cc1 and report it.
7.76

Entry Cc1nc2cnc3ccc(-c4cnc5[nH]ccc5c4)cc3c2n1-c1ccc(CC#N)cc1 has what pIC50?
6.98

What does the data say about its pIC50? Entry: Cc1nc2cnc3ccc(-c4cnc5[nH]ccc5c4)cc3c2n1[C@H](C)c1ccccc1
6.78

Please look up its pIC50: Cc1nc2cnc3ccc(-c4cnc5[nH]ccc5c4)cc3c2n1C1CC1
6.09

Reported pIC50, compound Cc1nc2cnc3ccc(-c4cnc5[nH]ccc5c4)cc3c2n1CC1CCOC1 (stereo unspecified) : ____
6.35

Any idea what pIC50 was measured for Cc1nc2cnc3ccc(-c4ccc(C#N)cc4)cc3c2n1-c1ccc(F)cc1 ?
6.29

Entry CNC(=O)c1ccc(-c2ccc3ncc4nc(C)n(-c5ccc(F)cc5)c4c3c2)cc1 : reported pIC50 = ?
6.88

Query: pIC50; subject: Cc1nc2cnc3ccc(-c4cnc5[nH]ccc5c4)cc3c2n1-c1ccc(C#N)cc1
7.02

Looking for the measured pIC50 of Cc1nc2cnc3ccc(-c4ccc5[nH]ccc5c4)cc3c2n1-c1ccc(F)cc1 , can you help?
7.24

Find the recorded pIC50 belonging to Cc1nc2cnc3ccc(-c4cnc5[nH]ccc5c4)cc3c2n1-c1ccc(F)cc1 and report it.
7.54

So what's the measured pIC50 for this one? Cc1nc2cnc3cc(F)c(-c4cnc5[nH]ccc5c4)cc3c2n1-c1ccc(C(C)(C)C#N)cc1
7.54

# query: pIC50 of entry Cc1nc2cnc3ccc(-c4cnc5[nH]ccc5c4)cc3c2n1-c1ccccc1
7.49

====

Tested on: HCT-15
Assay: Antiproliferative activity against human HCT-15 cells with PIK3CA mutation assessed as inhibition of cell growth incubated for 48 to 72 hrs by MTT assay
Assay type: functional, cell-based
METRIC NAME: IC50 (nM)
Give your result in nM as a bare value.

Sample answers from the record:
- MOLECULE SMILES: "Cc1nc2cnc3ccc(-c4cnc5[nH]ccc5c4)cc3c2n1Cc1ccccc1"
  SYSTEM TESTED: "HCT-15"
  ASSAY VALUE: 3060
- MOLECULE SMILES: "Cc1nc2cnc3ccc(-c4cnc(N)nc4)cc3c2n1-c1ccc(F)cc1"
  SYSTEM TESTED: "HCT-15"
  ASSAY VALUE: 1970
- MOLECULE SMILES: "Cc1nc2cnc3ccc(-c4ccc(O)cc4)cc3c2n1-c1ccc(F)cc1"
  SYSTEM TESTED: "HCT-15"
  ASSAY VALUE: 2750
- MOLECULE SMILES: "Cc1nc2cnc3ccc(-c4cnc5[nH]ccc5c4)cc3c2n1[C@@H](C)c1ccccc1"
  SYSTEM TESTED: "HCT-15"
  ASSAY VALUE: 1520
- MOLECULE SMILES: "Cc1nc2cnc3ccc(-c4cnc5[nH]ccc5c4)cc3c2n1-c1ccc(CC#N)cc1"
  SYSTEM TESTED: "HCT-15"
  ASSAY VALUE: 1790

Name the reported IC50 value associated with the molecule Cc1nc2cnc3ccc(-c4ccc5ccccc5c4)cc3c2n1-c1ccc(F)cc1
9750

Would you mind telling me what IC50 value was observed for Cc1nc2cnc3ccc(-c4ccc(N)nc4)cc3c2n1-c1ccc(F)cc1 ?
2020

What does the data say about its IC50? Entry: Cc1nc2cnc3ccc(-c4cnc5[nH]ccc5c4)cc3c2n1[C@H](C)c1ccccc1
1430

If you can, please state the reported IC50 value of Cc1nc2cnc3ccc(-c4cnc5[nH]ccc5c4)cc3c2n1-c1ccccc1 .
1940

What value of IC50 has been reported for the following molecule? Cc1nc2cnc3ccc(-c4cnc5[nH]ccc5c4)cc3c2n1-c1ccc(N2CCOCC2)cc1
1360

Report IC50 for Cc1nc2cnc3ccc(-c4ccc5[nH]ccc5c4)cc3c2n1-c1ccc(F)cc1 please.
1920

Return reported IC50; argument: Cc1nc2cnc3ccc(-c4cnc5[nH]ccc5c4)cc3c2n1[C@H](C)c1ccc(F)cc1
1170

Using the record for Cc1nc2cnc3ccc(-c4cnc5[nH]ccc5c4)cc3c2n1-c1ccc(C#N)cc1 , report its IC50.
1410

Please look up its IC50: Cc1nc2cnc3ccc(-c4cnc5[nH]ccc5c4)cc3c2n1-c1ccc(C(F)(F)F)nc1
2850

Can you share its IC50? I mean this molecule: Cc1nc2cnc3cc(F)c(-c4cnc5[nH]ccc5c4)cc3c2n1-c1ccc(C(C)(C)C#N)cc1
830

Field request: IC50 | item: Cc1nc2cnc3ccc(-c4cnc5ccccc5c4)cc3c2n1-c1ccc(F)cc1
3090

For the molecule Cc1nc2cnc3ccc(-c4cnc5[nH]ccc5c4)cc3c2n1-c1ccc(F)nc1 , what IC50 is on record?
1290

Item Cc1nc2cnc3ccc(-c4cnc5[nH]ccc5c4)cc3c2n1-c1ccc(C(C)(C)C#N)nc1 has what recorded IC50?
170

Item under review: Cc1nc2cnc3ccc(-c4cnc5[nH]ccc5c4)cc3c2n1-c1ccc(C(C)(C)C#N)cc1 . Reported IC50?
290
